Items are presented alongside their recorded melting point.

Observe how each entry below is paired with its result.
NC(=O)c1nc(Cl)ccc1N	176 to 177 °C
CCCCOc1nc(N)nc2ccc(-c3ccc(F)cc3)nc12	172 to 173 °C
CC(=O)Nc1nc(OC(C)C)c2nc(-c3ccc(F)cc3)ccc2n1	196 to 197 °C

Then there is this molecule:
Identify melting point associated with the molecule CC(C)Oc1nc(N)nc2ccc(-c3cccc(F)c3)nc12
200 to 201 °C

====

Items are presented alongside their recorded pIC50.
test system: production of human TNF-α by PBMC in response to LPS; test: TNF-α assay (LPS-stimulated PBMC, sandwich ELISA); assay type: cell-based; details: Homo sapiens, PBMC; LPS 1 μg/ml, 72 hours; read-out: TNF α
Just so you know, pIC50 here is -log10 of the concentration in molar units; reply with that number alone.

Identify pIC50 associated with the compound COc1ccc(-c2ccc3ncnc(N4CCN(C(=O)Nc5cccc(C)c5)CC4)c3n2)cc1OC
7.15

Identify pIC50 associated with the compound COc1ccc(-c2ccc3nc(N)nc(N4CCOCC4)c3n2)cc1Cl
5.82

Identify pIC50 associated with the compound COc1ccc(-c2ccc3nc(N)nc(NC4CCN(C(=O)OC(C)(C)C)CC4)c3n2)cc1OC
7.40

Identify pIC50 associated with the compound COc1ccc(-c2ccc3nc(N)nc(NCCCNC(=O)Nc4cccc(C)c4)c3n2)cc1OC
5.16

Identify pIC50 associated with the compound Nc1nc(N2CCOCC2)c2nc(-c3ccc(Cl)s3)ccc2n1
5.27

Identify pIC50 associated with the compound CC(=O)N1CCN(c2nc(N)nc3ccc(-c4ccc5c(c4)OCO5)nc23)CC1
5.32

Identify pIC50 associated with the compound COc1ccc(-c2ccc3nc(N)nc(N4CCN(CC(=O)NCCc5ccccc5)CC4)c3n2)cc1OC
6.52

Identify pIC50 associated with the compound COc1ccc(-c2ccc3nc(N)nc(N4CCCC(C(=O)NCC(C)C)C4)c3n2)cc1OC (stereo not drawn)
6.15

Identify pIC50 associated with the compound Nc1nc(N2CCOCC2)c2nc(-c3ccc4[nH]ccc4c3)ccc2n1
5.59

Identify pIC50 associated with the compound COc1ccc(-c2ccc3nc(N)nc(NC4CCCN(C(=O)OC(C)(C)C)C4)c3n2)cc1OC (stereo not drawn)
6.22

Identify pIC50 associated with the compound Nc1nc(N2CCN(CC(=O)Nc3nccs3)CC2)c2nc(-c3ccc4c(c3)OCO4)ccc2n1
5.46

Identify pIC50 associated with the compound COc1ccc(-c2ccc3nc(N)nc(N4CCN(C(=O)Nc5cccc(Cl)c5)CC4)c3n2)cc1O
6.05

Identify pIC50 associated with the compound Clc1ccc(-c2ccc3ncnc(N4CCOCC4)c3n2)cc1
5.00

Identify pIC50 associated with the compound COc1ccc(-c2ccc3nc(N)nc(NC4CCN(C(=O)Nc5cccc(C)c5)CC4)c3n2)cc1OC
6.30

Identify pIC50 associated with the compound Cc1ccc(-c2ccc3nc(N)nc(N4CCOCC4)c3n2)s1
5.74
